Where do these numbers come from? They come from PubChem BioAssay AID1259407.

tested on: CCRIS mutagenicity, Ames/micronucleus/aberration tests; experiment: CCRIS mutagenicity studies; conditions: Test System: E. COLI; Strain/Indicator: WP2 UVRA; Metabolic Activation: NONE; Method: PREINCUBATION
Active and inactive are the calls of the source. How the calls were made is not given here.
Give your call using only these classes: active, inactive

>>> category("CCCCCCCCCCCCCCCCCC(=O)NCCCC[C@@H](NC(=O)CC[C@@H](NC(=O)[C@H](C)NC(=O)[C@@H](C)O[C@H]1[C@H](O)[C@@H](CO)OC(O)[C@@H]1NC(C)=O)C(N)=O)C(=O)O (stereo not given in full)")
"inactive"
>>> category("Cl")
"inactive"

Query: Write down the call the test reported for this compound. Item: OCC(O)CO
Reply: inactive

Query: Another compound to check: CNC(=O)C[C@@H](N)C(=O)N[C@@H](C(=O)N[C@@H]1C(=O)N2[C@@H]1SC(C)(C)[C@@H]2C(=O)O)c1ccc(O)cc1
Reply: inactive

Query: For CC/C(=C(/c1ccc(OCCN(C)C)cc1)c1ccc(OP(=O)(O)O)cc1)c1ccc(C(C)C)cc1 then?
Reply: inactive

Query: Moving on to COc1cccc(C(=O)CBr)c1
Reply: inactive

Query: Now give it for OC[C@@H](O)[C@@H](O[C@@H]1O[C@H](CO)[C@H](O)[C@H](O)[C@H]1O)[C@H](O)[C@@H](O)CO too.
Reply: inactive

Query: Similarly, O=c1n(Cl)c(=O)n(Cl)c(=O)n1Cl ?
Reply: inactive

Query: Now the same for O=C/C=C/C=C/C=O
Reply: inactive

Query: Also, Cc1ccc(C)cc1 please.
Reply: inactive

Query: And then CCCCCOc1cccc(NC(=O)O[C@@H]2CCCC[C@H]2N2CCCC2)c1 , what is it?
Reply: inactive

Query: Now consider CCNC(=O)Nc1ccc(OCC(O)CNC(C)(C)C)c(C(C)=O)c1 (stereo not given) and answer again.
Reply: inactive

Query: Note, next up: CC(=O)C(C)=O
Reply: inactive

Query: Another: CCC1CO1 (stereo not given)
Reply: inactive

Query: Now the compound C1N2CN3CN1CN(C2)C3
Reply: inactive

Query: Field entry: CCCCN(N=O)C(=O)N(C)C
Reply: active

Query: Lookup Cc1ccccc1N
Reply: inactive

Query: Follow-up entry: CNN
Reply: active

Query: Note, next up: CC(C)CO
Reply: inactive

Query: Request: CO/N=C(\C(=O)N[C@@H]1C(=O)N2C(C(=O)OCOC(=O)C(C)(C)C)=C(/C=C\c3scnc3C)CS[C@H]12)c1csc(N)n1
Reply: inactive

====

tested on: CCRIS mutagenicity, Ames/micronucleus/aberration tests; test: CCRIS mutagenicity studies; conditions: Test System: AMES SALMONELLA TYPHIMURIUM; Strain/Indicator: TA100; Metabolic Activation: RAT, LIVER, S-9, AROCLOR 1254 (30%); Method: PREINCUBATION
The source made the active and inactive calls. The rule behind the calls is not given here.
Outcome (select one): active, inactive

Solved entries:
>>> category("CCCCCCCCOc1ccc(C(=O)O)cc1")
"inactive"
>>> category("CC(=O)Oc1ccccc1C(=O)O")
"inactive"

Query: So what was the verdict on O=[N+]([O-])c1ccc(O)c([N+](=O)[O-])c1 in this test?
Reply: inactive

Query: Same question for O=C(O)CNCP(=O)(O)O please.
Reply: inactive

Query: Another compound: CC1CC(=O)O1 (stereo unspecified)
Reply: active

Query: Then what about the compound N#C/C=C/C#N ?
Reply: inactive

Query: Same for Oc1c(Cl)ccc(Cl)c1Cl
Reply: inactive

Query: One more compound: CCCCCCCCCCCC(=O)N(CCO)CCO
Reply: inactive

Query: Next entry: CC(C)CON=O
Reply: active

Query: Would you kindly repeat that for CC/C=C/C#N ?
Reply: inactive

Query: Please answer likewise for Cc1ccccc1N=Nc1c(O)ccc2ccccc12
Reply: inactive

====

system: CCRIS mutagenicity, Ames/micronucleus/aberration tests; assay: CCRIS mutagenicity studies; settings: Test System: E. COLI; Strain/Indicator: WP2 UVRA; Metabolic Activation: HAMSTER, LIVER, S-9; Method: STANDARD PLATE
Activity calls are given as the source filed them. No rule for the calls is given here.
Observed property: mutagenic call

>>> observed_measurement("CCC1CO1 (centres undefined)")
"inactive; negative"
>>> observed_measurement("CC(=O)Oc1ccccc1C(=O)O")
"inactive; negative"
>>> observed_measurement("CC/C(=C(/CC)c1ccc(O)cc1)c1ccc(O)cc1")
"inactive; negative"
>>> observed_measurement("N=C1C=CC(=C(c2ccc(N)cc2)c2ccc(N)cc2)C=C1")
"inactive; negative"
>>> observed_measurement("[N-]=[N+]=[N-]")
"inactive; negative"

Field: mutagenic call. Fill in for each record below.
1. COc1ccc(N)cc1N
2. O=C(O)CN(CC(=O)O)CC(=O)O
3. CN(C)C(=O)Nc1cccc(C(F)(F)F)c1
4. Cc1ccccc1N=Nc1ccc(N(C)C)cc1

Reply:
inactive; negative
inactive; negative
inactive; negative
inactive; negative

====

test system: CCRIS mutagenicity, Ames/micronucleus/aberration tests; assay: CCRIS mutagenicity studies; settings: Test System: AMES SALMONELLA TYPHIMURIUM; Strain/Indicator: TA98; Metabolic Activation: HAMSTER, LIVER, S-9, AROCLOR 1254; Method: STANDARD PLATE
Activity calls are given as the source filed them. No rule for the calls is given here.
Response enum: active, inactive

// known answers, use as guide
>>> category("Nc1ccc(S(=O)(=O)Nc2cnc3c(Cl)cccc3n2)cc1")
"inactive"
>>> category("CC(C)CON=O")
"inactive"
>>> category("CCc1ccco1")
"inactive"
>>> category("CC(=O)Nc1ccc(O)cc1")
"inactive"
>>> category("c1ccc2cnncc2c1")
"inactive"
>>> category("O=C(/C=C/c1ccc(O)c(O)c1)O[C@@H]1C[C@](O)(C(=O)O)C[C@@H](O)[C@H]1O")
"inactive"

Query: For this compound, state the assay outcome: O=c1c(O)c(O)c1=O
Reply: inactive

Query: Can you check O=C(C(=O)c1ccccc1)c1ccccc1 next?
Reply: inactive

Query: Query C=C(Cl)CCl next
Reply: active

Query: And COc1ccc2nc(N)sc2c1 ?
Reply: active

Query: Ok, now Cl/C=C/C[N+]12CN3CN(CN(C3)C1)C2
Reply: inactive

Query: And O.O.O.O=C([O-])[C@H]([O-])[C@@H]([O-])C(=O)[O-].O=C([O-])[C@H]([O-])[C@@H]([O-])C(=O)[O-].[K+].[K+].[Sb+3].[Sb+3] ?
Reply: inactive

====

system: CCRIS mutagenicity, Ames/micronucleus/aberration tests; experiment: CCRIS mutagenicity studies; details: Test System: AMES SALMONELLA TYPHIMURIUM; Strain/Indicator: TA98; Metabolic Activation: RAT, LIVER, S-9, PCB (5%); Method: PREINCUBATION
Calls of active or inactive are those of the source. No rule for the calls is given here.
Outcome (select one): yes (active), no (inactive)

Take a look at these entries with their results.
>>> category("O=[N+]([O-])c1ccc2c(c1)oc1ccccc12")
"yes"
>>> category("O=[N+]([O-])c1ccc2c(c1)Oc1ccc([N+](=O)[O-])cc1O2")
"yes"
>>> category("O=[N+]([O-])c1ccc2c(c1)Oc1ccccc1O2")
"yes"

Now, please, on to the next compound.
Query: Returns: the outcome recorded for O=[N+]([O-])c1cccc2oc3ccccc3c12 in this assay.
Reply: no

====

tested on: CCRIS mutagenicity, Ames/micronucleus/aberration tests; assay: CCRIS mutagenicity studies; conditions: Test System: AMES SALMONELLA TYPHIMURIUM; Strain/Indicator: TA98(NR); Metabolic Activation: NONE; Method: SUSPENSION
Active and inactive are the calls of the source. The rule behind the calls is not given here.
Observed property: mutagenic call

>>> observed_measurement("O=[N+]([O-])c1ccc2c(c1)Oc1ccc([N+](=O)[O-])cc1O2")
"active; positive"
>>> observed_measurement("O=[N+]([O-])c1cccc2oc3ccccc3c12")
"inactive; negative"
>>> observed_measurement("O=[N+]([O-])c1ccc2c(c1)Oc1ccccc1O2")
"inactive; negative"
>>> observed_measurement("O=[N+]([O-])c1ccc2c(c1)oc1ccccc12")
"active; positive"

====

tested on: CCRIS mutagenicity, Ames/micronucleus/aberration tests; test: CCRIS mutagenicity studies; conditions: Test System: AMES SALMONELLA TYPHIMURIUM; Strain/Indicator: TA1537; Metabolic Activation: RAT, LIVER, S-9, AROCLOR 1254; Method: STANDARD PLATE
Activity calls are given as the source filed them. How the calls were made is not given here.
API: response.call in True for active, False for inactive

Recorded results for 5 molecules are shown here.
>>> category("CCCCCCCCCCSCn1cc[n+](C)c1")
"False"
>>> category("[N-]=[N+]=[N-]")
"False"
>>> category("COc1ccc2nc(N)sc2c1")
"True"
>>> category("COc1ccc(CNCC(O)COc2ccc3[nH]c(=O)ccc3c2)cc1OC (stereo not drawn)")
"False"
>>> category("O=C(O)CCCC[C@@H]1SC[C@@H]2NC(=O)N[C@@H]21")
"False"

Query: Outcome? COC(=O)Nc1nc2ccc(O)cc2[nH]1
Reply: False

Query: Repeat for the following molecule: C=CC(=O)OCC
Reply: False

Query: Entry to check: C[C@@H]1CC[C@@]2(OC1)O[C@H]1C[C@H]3[C@@H]4CC=C5C[C@@H](O)CC[C@]5(C)[C@H]4CC[C@]3(C)[C@H]1[C@@H]2C
Reply: False

Query: Now this one: C1CCC2OCCOCCOCCOC3CCCCC3OCCOCCOCCOC2C1 (stereo not drawn)
Reply: False

Query: Thanks! And CC(C)CON=O ?
Reply: False

Query: // repeat for C=C(C)C(=O)OC(C)(C)C and report
Reply: False

Query: Then this molecule: Cc1ccccc1N
Reply: False

Query: Another molecule to check: O=c1c(Cl)c(Cl)cnn1S(=O)(=O)c1ccc([N+](=O)[O-])cc1
Reply: False
